Ref: patent US20110086806A1

Biological target: T1, recombinant human IL-23R/Fc chimera (R&D Systems) (human, UniProt Q5VWK5 24-355)
T1 construct: Bought; also called rhIL23RFc
T1 sequence (looked up): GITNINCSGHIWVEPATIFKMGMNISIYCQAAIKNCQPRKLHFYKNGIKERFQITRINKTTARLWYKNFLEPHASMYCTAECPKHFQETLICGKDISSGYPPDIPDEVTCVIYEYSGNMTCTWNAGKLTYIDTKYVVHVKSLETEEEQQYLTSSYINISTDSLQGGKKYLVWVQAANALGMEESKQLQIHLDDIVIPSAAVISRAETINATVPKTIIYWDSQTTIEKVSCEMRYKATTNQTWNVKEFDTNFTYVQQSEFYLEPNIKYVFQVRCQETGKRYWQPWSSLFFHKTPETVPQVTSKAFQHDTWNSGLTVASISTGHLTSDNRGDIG
Experiment: competition ELISA vs IL-23
property measured: Ratio IC50 to 056-53.H4E IC50

Query block: # return recorded Ratio IC50 to 056-53.H4E IC50 for entry 101-113-6C108 ATRIMER complex (designed binder, Forms a homotrimer through the tetranectin coiled coil; one protomer is given., not shown: C-terminal tag: His/Myc (pANA4) or HA-StrepII (pANA10)) EPPTQKPKKIVNAKKDVVNTKMFEELKSRLDTLAQEVALLKEQQALQTVCLKGTKVHMKCFLAFTQTKTFHEASEDCISRGGTLSTPQTGSENDALYEYLRQSVGNEAEIWLGLNGSALTNTWVDMTGARIAYKNWEPPPPHHPMGGFGVFGENCAVLSGAANGKWFDKRCRDQLPYICQFGIV
Result block: 0.9

Query block: Identify the reported Ratio IC50 to 056-53.H4E IC50 for the following entry. 105-08-2G4 ATRIMER complex (designed binder) EPPTQKPKKIVNAKKDVVNTKMFEELKSRLDTLAQEVALLKEQQALQTVCLKGTKVHMKCFLAFTQTKTFHEASEDCISRGGTLSTPQTGSENDALYEYLRQSVGNEAEIWLGLNGSPRTGTWVDMTGARIAYKNWETEITAQPDGGFGYFGENCAVLSGAANGKWFDKRCRDQLPYICQFGIV
Result block: 2.5

Query block: Note Ratio IC50 to 056-53.H4E IC50 for the binder shown: 105-20-2G12 ATRIMER complex (designed binder) EPPTQKPKKIVNAKKDVVNTKMFEELKSRLDTLAQEVALLKEQQALQTVCLKGTKVHMKCFLAFTQTKTFHEASEDCISRGGTLSTPQTGSENDALYEYLRQSVGNEAEIWLGLNGSPRTNTWVDMTGARIAYKNWETEITAQPDGGFGYFGENCAVLSGAANGKWFDKRCRDQLPYICQFGIV
Result block: 1

Please give Ratio IC50 to 056-53.H4E IC50 for each item listed below.
1. 105-20-2G5 ATRIMER complex (designed binder) EPPTQKPKKIVNAKKDVVNTKMFEELKSRLDTLAQEVALLKEQQALQTVCLKGTKVHMKCFLAFTQTKTFHEASEDCISRGGTLSTPQTGSENDALYEYLRQSVGNEAEIWLGLNGSRRTDTWVDMTGARIAYKNWETEITAQPDGGWGYFGENCAVLSGAANGKWFDKRCRDQLPYICQFGIV
2. 105-78-2D1 ATRIMER complex (designed binder) EPPTQKPKKIVNAKKDVVNTKMFEELKSRLDTLAQEVALLKEQQALQTVCLKGTKVHMKCFLAFTQTKTFHEASEDCISRGGTLSTPQTGSENDALYEYLRQSVGNEAEIWLGLNGSLRTHTWVDMTGARIAYKNWETEITAQPDGGFGVFGENCAVLSGAANGKWFDKRCRDQLPYICQFGIV

Result block:
1: 5.3; 2: 1.3

Could you tell me Ratio IC50 to 056-53.H4E IC50 for each of these binders? They are listed below.
1. 105-08-2G10 ATRIMER complex (designed binder) EPPTQKPKKIVNAKKDVVNTKMFEELKSRLDTLAQEVALLKEQQALQTVCLKGTKVHMKCFLAFTQTKTFHEASEDCISRGGTLSTPQTGSENDALYEYLRQSVGNEAEIWLGLNGSPLTDTWVDMTGARIAYKNWETEITAQPDGGFGYFGENCAVLSGAANGKWFDKRCRDQLPYICQFGIV
2. 101-54-4B3 ATRIMER complex (designed binder) EPPTQKPKKIVNAKKDVVNTKMFEELKSRLDTLAQEVALLKEQQALQTVCLKGTKVHMKCFLAFTQTKTFHEASEDCISRGGTLSTPQTGSENDALYEYLRQSVGNEAEIWLGLNGSALTNTWVDMTGARIAYKNWELPPPGHPQGGFGVFGENCAVLSGAANGKWFDKRCRDQLPYICQFGIV
3. 105-20-1B4 ATRIMER complex (designed binder, ATRIMER complex: homotrimer of three copies of this chain, joined by the tetranectin coiled coil, not shown: C-terminal tag: Myc/His (pANA4) or HA-StrepII (pANA10)) EPPTQKPKKIVNAKKDVVNTKMFEELKSRLDTLAQEVALLKEQQALQTVCLKGTKVHMKCFLAFTQTKTFHEASEDCISRGGTLSTPQTGSENDALYEYLRQSVGNEAEIWLGLNGSSRTNTWVDMTGARIAYKNWETEITAQPDGGWGYFGENCAVLSGAANGKWFDKRCRDQLPYICQFGIV

Result block:
1.8
1
3
